biological target: Voltage-gated inwardly rectifying potassium channel KCNH2 (Homo sapiens); assay: Inhibition of human ERG by whole-cell patch clamp method
Sequence (Q12809 whole entry): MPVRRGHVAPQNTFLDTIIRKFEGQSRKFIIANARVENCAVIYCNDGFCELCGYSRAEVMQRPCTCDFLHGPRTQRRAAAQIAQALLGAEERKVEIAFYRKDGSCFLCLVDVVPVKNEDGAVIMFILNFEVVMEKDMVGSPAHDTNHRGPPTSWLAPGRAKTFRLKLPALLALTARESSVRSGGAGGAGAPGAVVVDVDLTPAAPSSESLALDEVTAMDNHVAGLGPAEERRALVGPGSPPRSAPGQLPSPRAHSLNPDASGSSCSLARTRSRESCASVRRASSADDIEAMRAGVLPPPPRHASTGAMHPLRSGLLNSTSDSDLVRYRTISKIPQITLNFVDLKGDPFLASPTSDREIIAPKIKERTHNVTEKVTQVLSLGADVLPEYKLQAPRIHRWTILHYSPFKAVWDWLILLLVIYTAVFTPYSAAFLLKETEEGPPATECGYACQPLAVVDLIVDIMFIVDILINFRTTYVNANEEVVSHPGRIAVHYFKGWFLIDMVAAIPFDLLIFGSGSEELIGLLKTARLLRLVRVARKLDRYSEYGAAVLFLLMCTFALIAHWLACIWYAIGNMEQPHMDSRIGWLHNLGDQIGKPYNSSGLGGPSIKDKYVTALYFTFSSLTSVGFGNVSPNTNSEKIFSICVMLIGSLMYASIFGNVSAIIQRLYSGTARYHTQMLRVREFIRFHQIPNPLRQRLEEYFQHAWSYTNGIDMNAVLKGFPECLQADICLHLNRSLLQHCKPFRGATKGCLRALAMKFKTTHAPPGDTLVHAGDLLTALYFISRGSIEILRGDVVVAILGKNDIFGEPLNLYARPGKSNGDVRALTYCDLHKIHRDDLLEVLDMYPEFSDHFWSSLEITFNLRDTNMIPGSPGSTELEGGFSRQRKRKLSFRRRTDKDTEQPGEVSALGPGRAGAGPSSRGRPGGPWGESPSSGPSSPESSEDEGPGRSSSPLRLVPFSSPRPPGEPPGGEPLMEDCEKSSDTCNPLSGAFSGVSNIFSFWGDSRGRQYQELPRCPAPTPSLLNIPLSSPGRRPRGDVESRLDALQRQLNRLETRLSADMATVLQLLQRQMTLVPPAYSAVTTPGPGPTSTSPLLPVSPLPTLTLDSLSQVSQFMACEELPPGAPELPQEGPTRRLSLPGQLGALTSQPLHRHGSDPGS
pIC50: −log10 of the molar value.
# pIC50 annotations

# Molecule, pIC50
rows = [
    ("Cc1ccc(CCN2CC[C@H](CNC(=O)c3cc(C(C)C)no3)C2)cc1C(F)(F)F", 5.72),
    ("CC(C)c1cc(C(=O)NC[C@H]2CCN(CCc3ccc(Cl)c(Cl)c3)C2)on1", 5.82),
    ("CC(C)c1cc(C(=O)NC[C@H]2CCN(CCc3ccc(Cl)c(F)c3)C2)on1", 5.82),
    ("CC(C)c1cc(C(=O)NC[C@H]2CCN(CCc3ccc(OC(F)(F)F)c(F)c3)C2)on1", 6.80),
    ("COC(=O)C1=C(C)NC(C)=C(C(=O)NC[C@H]2CCN(CCc3ccc(C)c(C(F)(F)F)c3)C2)C1c1cccc([N+](=O)[O-])c1 (stereo partly drawn)", 5.57),
    ("COC(=O)C1=C(C)NC(C)=C(C(=O)NC[C@H]2CCN(CCc3ccc(C(F)(F)F)cc3)C2)C1c1cccc([N+](=O)[O-])c1 (stereo partly drawn)", 5.83),
    ("COC(=O)C1=C(C)NC(C)=C(C(=O)NC[C@H]2CCN(CCc3ccc(Cl)c(F)c3)C2)C1c1cccc([N+](=O)[O-])c1 (stereo partly drawn)", 6.48),
    ("COC(=O)C1=C(C)NC(C)=C(C(=O)NC[C@H]2CCN(CCc3ccc(OC(F)(F)F)c(F)c3)C2)C1c1cccc([N+](=O)[O-])c1 (stereo partly drawn)", 5.83),
]
